Tested on: MDA-MB-231 breast
Test: NCI-60 one-dose screen, 48 h (100 = growth as untreated, 0 = no growth, -100 = all killed)
Conditions: 10 µM unless noted
The panel holds about 83,000 compounds, 20% with a hit somewhere; the sample as a whole holds those more often.
Response field label: string, one of 1 (yes) (growth strictly below 80%) or 0 (no).

[
  {
    "Structure As Smiles": "COc1ccc(Cc2cc(-c3ccccc3C)n[nH]c2=O)cc1",
    "Target Or Test System": "MDA-MB-231 breast",
    "Class Assignment": "0 (no)"
  },
  {
    "Structure As Smiles": "COc1cc2cc(NCc3ccc(Cl)cc3)nc(C)c2cc1OC",
    "Target Or Test System": "MDA-MB-231 breast",
    "Class Assignment": "1 (yes)"
  },
  {
    "Structure As Smiles": "Cc1cc(Nc2ncc(Cl)c(Nc3ccccc3S(=O)(=O)C(C)C)n2)c(OC(C)C)cc1C1CCNCC1",
    "Target Or Test System": "MDA-MB-231 breast",
    "Class Assignment": "1 (yes)"
  },
  {
    "Structure As Smiles": "CN(C)C[C@@H]1CCn2cc(c3ccccc32)C2=C(C(=O)NC2=O)c2cn(c3ccccc23)CCO1",
    "Target Or Test System": "MDA-MB-231 breast",
    "Class Assignment": "1 (yes)"
  },
  {
    "Structure As Smiles": "CCN1CCN(CCCN(C[C@H]2Cc3ccccc3CN2)[C@H]2CCCc3cccnc32)CC1",
    "Target Or Test System": "MDA-MB-231 breast",
    "Class Assignment": "1 (yes)"
  }
]
